- TESTED SYSTEM: T1, ECD of human 4Ig-B7H3 (Sinobiological, Cat: 11188-H08H) (human, UniProt Q5ZPR3 29-466)
- T1 construct: Bought protein; also called recombinant B7H3
- T1 sequence: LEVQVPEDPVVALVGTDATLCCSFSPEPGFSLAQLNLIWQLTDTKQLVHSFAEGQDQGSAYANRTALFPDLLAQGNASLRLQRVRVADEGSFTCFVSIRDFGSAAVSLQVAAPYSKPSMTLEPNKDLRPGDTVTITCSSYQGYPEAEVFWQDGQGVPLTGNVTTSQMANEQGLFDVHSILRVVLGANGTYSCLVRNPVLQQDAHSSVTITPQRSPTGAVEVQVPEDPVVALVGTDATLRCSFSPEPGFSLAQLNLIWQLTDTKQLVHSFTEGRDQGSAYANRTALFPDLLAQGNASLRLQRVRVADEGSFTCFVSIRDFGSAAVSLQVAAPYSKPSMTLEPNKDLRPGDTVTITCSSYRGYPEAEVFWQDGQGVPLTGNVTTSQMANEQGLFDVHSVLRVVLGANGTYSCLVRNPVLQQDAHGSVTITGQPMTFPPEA
- TEST NAME: SPR, antibody captured on anti-human Fc surface, Test 1
QUANTITY NAME: Kd (nM)
Just the number please, in nM, no unit attached.

Below: 4 binders and their reported Kd.
BINDER	QUANTITY NAME	NUMERIC READOUT
BGA-4380 (BGA-3726 variant comprising N29Q in LCDR1) (antibody, human IgG1, kappa, V domains shown) VH: QVQLQESGPGLVKPSGTLSLTCAVSGGSISTSNWWNWVRQSPGKGLEWIGEIYPTGNTNYSPSLKSRVTISIDKSKNQFSLKLNSVTAADTAVYYCARGWNWFDPWGQGTLVTVSS VL: EIVLTQSPGTLSLSPGERATLSCRTSQSIQGILLAWYQQKPGQAPRLLIYGASSRATGIPDRFSGSGSGTDFTLSISRLEPEDFAVYYCQQYGSSPRTFGQGTKVEIKR	Kd	0.635
BGA-4826 (BGA-3726 variant comprising W34Y in HCDR1) (antibody, human IgG1, kappa, V domains shown) VH: QVQLQESGPGLVKPSGTLSLTCAVSGGSISTSNYWNWVRQSPGKGLEWIGEIYPTGNTNYSPSLKSRVTISIDKSKNQFSLKLNSVTAADTAVYYCARGWNWFDPWGQGTLVTVSS VL: EIVLTQSPGTLSLSPGERATLSCRTSQSINGILLAWYQQKPGQAPRLLIYGASSRATGIPDRFSGSGSGTDFTLSISRLEPEDFAVYYCQQYGSSPRTFGQGTKVEIKR	Kd	0.596
BGA-3726 in human full-length format (human IgG1 variant IgG1mf / kappa) (antibody, V domains shown) VH: QVQLQESGPGLVKPSGTLSLTCAVSGGSISTSNWWNWVRQSPGKGLEWIGEIYPTGNTNYSPSLKSRVTISIDKSKNQFSLKLNSVTAADTAVYYCARGWNWFDPWGQGTLVTVSS VL: EIVLTQSPGTLSLSPGERATLSCRTSQSINGILLAWYQQKPGQAPRLLIYGASSRATGIPDRFSGSGSGTDFTLSISRLEPEDFAVYYCQQYGSSPRTFGQGTKVEIKR	Kd	0.424
BGA-4265 (BGA-3726 variant comprising G30A in LCDR1) (antibody, human IgG1, kappa, V domains shown) VH: QVQLQESGPGLVKPSGTLSLTCAVSGGSISTSNWWNWVRQSPGKGLEWIGEIYPTGNTNYSPSLKSRVTISIDKSKNQFSLKLNSVTAADTAVYYCARGWNWFDPWGQGTLVTVSS VL: EIVLTQSPGTLSLSPGERATLSCRTSQSINAILLAWYQQKPGQAPRLLIYGASSRATGIPDRFSGSGSGTDFTLSISRLEPEDFAVYYCQQYGSSPRTFGQGTKVEIKR	Kd	0.308

Noted for BGA-4498 (BGA-3726 variant comprising W96Y in HCDR3) (antibody, human IgG1, kappa, V domains shown) VH: QVQLQESGPGLVKPSGTLSLTCAVSGGSISTSNWWNWVRQSPGKGLEWIGEIYPTGNTNYSPSLKSRVTISIDKSKNQFSLKLNSVTAADTAVYYCARGYNWFDPWGQGTLVTVSS VL: EIVLTQSPGTLSLSPGERATLSCRTSQSINGILLAWYQQKPGQAPRLLIYGASSRATGIPDRFSGSGSGTDFTLSISRLEPEDFAVYYCQQYGSSPRTFGQGTKVEIKR : its Kd reads 0.632

Origin of the recorded values: patent US20260116980A1
